>  <COMPOUND>
COc1ccc2c(c1OC)CCCC2(O)CN (stereo not given)

>  <melting point>
138 to 140 °C

$$$$
>  <COMPOUND>
C=C1CCC2C3CC(=O)C4=CC(=O)CCC4(C)C3CCC12C (stereo not given)

>  <melting point>
113 to 115 °C

$$$$
>  <COMPOUND>
Cc1[nH]c(=O)c(C#N)cc1-c1ccc(S(C)(=O)=O)cc1

>  <melting point>
312 to 313 °C

$$$$
>  <COMPOUND>
CC(C)CCCC(=O)OC1c2ccccc2C(=O)N1c1ccc2ccc(Cl)nc2n1 (stereo not given)

>  <melting point>
132 °C

$$$$
>  <COMPOUND>
CCc1cc(C(=O)c2ccccc2Cl)c(-n2c(C)nnc2CNC(=O)c2ccccc2)s1

>  <melting point>
160 to 161 °C

$$$$
>  <COMPOUND>
Cn1c(Cl)c(C=O)c2cc(Cl)ccc21

>  <melting point>
165 to 167 °C

$$$$
>  <COMPOUND>
CCCC(=O)COS(=O)(=O)c1c(C)cc(C)cc1C

>  <melting point>
57.5 to 58.5 °C

$$$$
>  <COMPOUND>
CCCCCCCCCCCCCC(=O)NCCOCCn1c(CCOC)nc2c(N)nc3ccccc3c21

>  <melting point>
85 to 87 °C

$$$$
>  <COMPOUND>
Cc1cccc(-c2ccc(NC(=O)OC(C)(C)C)c([N+](=O)[O-])c2)c1

>  <melting point>
83 to 85 °C

$$$$
>  <COMPOUND>
CC(C)(C)c1ccc(C=C(SC(=Cc2ccc(C(C)(C)C)cc2)S(=O)(=O)c2ccccc2)S(=O)(=O)c2ccccc2)cc1

>  <melting point>
57 to 58 °C

$$$$

----------
PROPERTY_LABEL: melting point

>  <COMPOUND>
NC(=O)Cc1cccc(Oc2ccccc2)c1

>  <ENDPOINT_RESULT>
115 to 117 °C

$$$$
>  <COMPOUND>
COc1ccc(NC(=O)c2ccc(Br)cc2)cc1N1CCN(C)CC1

>  <ENDPOINT_RESULT>
158 to 160 °C

$$$$
>  <COMPOUND>
Cc1ccc2oc(Cc3nc4cc(C)ccc4o3)nc2c1

>  <ENDPOINT_RESULT>
91 °C

$$$$
>  <COMPOUND>
Cc1ccc(O)c(C(CCCC(c2cc(C)ccc2O)c2cc(C)ccc2O)c2cc(C)ccc2O)c1

>  <ENDPOINT_RESULT>
220 to 228 °C

$$$$
>  <COMPOUND>
CCCN1c2nc(-c3cn[nH]c3)ccc2NC(=O)c2cccnc21

>  <ENDPOINT_RESULT>
291 to 292 °C

$$$$
>  <COMPOUND>
CCCNCC(O)COc1ccccc1CCCc1cccc2[nH]ccc12 (stereo unspecified)

>  <ENDPOINT_RESULT>
99 to 100 °C

$$$$
>  <COMPOUND>
COc1ccc2c(c1)C(=O)Cc1c(C#N)cccc1S2

>  <ENDPOINT_RESULT>
186 to 187 °C

$$$$
>  <COMPOUND>
COc1ccc(C2=NN(c3ccc(CCO)cc3)C(=O)[C@H]3CC=CC[C@@H]23)cc1OC (relative stereo)

>  <ENDPOINT_RESULT>
137 to 139 °C

$$$$
>  <COMPOUND>
O=[N+]([O-])c1cc(-c2ccco2)ccc1Nc1cccc(-n2ccnc2)c1

>  <ENDPOINT_RESULT>
147 to 149 °C

$$$$
>  <COMPOUND>
Cc1nc(NCc2ccc(C)o2)c2nc(-c3ccccc3)cc-2[nH]1

>  <ENDPOINT_RESULT>
125 to 128 °C

$$$$
>  <COMPOUND>
COc1cc(/C=C/c2ccc(N(C)C)cc2)cc(OC)c1OC

>  <ENDPOINT_RESULT>
114 to 115 °C

$$$$

Origin of the recorded values: a melting point compilation (Tetko et al.; mined from patent text by program, amines drawn as free bases though some values may be those of a salt)
